Tested on: Candida albicans
assay-procedure: Antifungal activity against Candida albicans assessed as reduction in fungal growth after 20 hrs by […]
Format: functional
// classify(record): look up MIC in ranges bottom range: < 10 µM; center range: ≥ 10 µM and < 20 µM; top range: ≥ 20 µM

| substance | class |
| --- | --- |
| H-GILSSWLKKLKKIIAK-NH2 | center range |
| H-GIMSSLMKKLAAHIKK-NH2 | bottom range |
| H-GIMSSLMKKLKKHIAK-NH2 | center range |
| H-GIMSSLMKKLKKIIAK-NH2 | bottom range |
| H-GILKSLLKKLKKIIAK-NH2 | top range |
| H-GKLSSLWKKLKKIIAK-NH2 | top range |
| H-GIMSSLMKKLKKIIKK-NH2 | bottom range |
| H-GIMSSLMKKLAAHIAK-NH2 | center range |
| H-GIMSSLMKKLAKHIAK-NH2 | center range |
| H-GILSSLWKKLKKWIAK-NH2 | center range |
| H-GILSSLLKKLKKWIAK-NH2 | center range |
| H-GILSSLWKKPKKIIAK-NH2 | top range |
| H-GIMSSLMKKLKAHIAK-NH2 | top range |
| H-GILSKLLKKLKKIIAK-NH2 | top range |
| H-GIMSSLMKKLAAIIAK-NH2 | bottom range |
| H-GIMSSLMKKLAKIIAK-NH2 | center range |
| H-GIMISLMKKLAAHIAK-NH2 | center range |
| H-KILSSLLKKLKKIIAK-NH2 | top range |
| H-GILSSLWKKLKKIIAK-NH2 | center range |
| H-GIMSSLMKKLAKIIKK-NH2 | bottom range |
| H-GIWSSLLKKLKKIIAK-NH2 | center range |
| H-GILSSLLKKWKKIIAK-NH2 | center range |
